Where these numbers come from: patent US20260125400A1

- Tested System: TYK2 (Homo sapiens)
- Construct: Degradation of TYK2 in cells was quantitatively measured using Meso Scale Discovery (MSD) technology; endogenous in cells; host or cells: OCI-LY10
- Sequence (P29597 whole entry): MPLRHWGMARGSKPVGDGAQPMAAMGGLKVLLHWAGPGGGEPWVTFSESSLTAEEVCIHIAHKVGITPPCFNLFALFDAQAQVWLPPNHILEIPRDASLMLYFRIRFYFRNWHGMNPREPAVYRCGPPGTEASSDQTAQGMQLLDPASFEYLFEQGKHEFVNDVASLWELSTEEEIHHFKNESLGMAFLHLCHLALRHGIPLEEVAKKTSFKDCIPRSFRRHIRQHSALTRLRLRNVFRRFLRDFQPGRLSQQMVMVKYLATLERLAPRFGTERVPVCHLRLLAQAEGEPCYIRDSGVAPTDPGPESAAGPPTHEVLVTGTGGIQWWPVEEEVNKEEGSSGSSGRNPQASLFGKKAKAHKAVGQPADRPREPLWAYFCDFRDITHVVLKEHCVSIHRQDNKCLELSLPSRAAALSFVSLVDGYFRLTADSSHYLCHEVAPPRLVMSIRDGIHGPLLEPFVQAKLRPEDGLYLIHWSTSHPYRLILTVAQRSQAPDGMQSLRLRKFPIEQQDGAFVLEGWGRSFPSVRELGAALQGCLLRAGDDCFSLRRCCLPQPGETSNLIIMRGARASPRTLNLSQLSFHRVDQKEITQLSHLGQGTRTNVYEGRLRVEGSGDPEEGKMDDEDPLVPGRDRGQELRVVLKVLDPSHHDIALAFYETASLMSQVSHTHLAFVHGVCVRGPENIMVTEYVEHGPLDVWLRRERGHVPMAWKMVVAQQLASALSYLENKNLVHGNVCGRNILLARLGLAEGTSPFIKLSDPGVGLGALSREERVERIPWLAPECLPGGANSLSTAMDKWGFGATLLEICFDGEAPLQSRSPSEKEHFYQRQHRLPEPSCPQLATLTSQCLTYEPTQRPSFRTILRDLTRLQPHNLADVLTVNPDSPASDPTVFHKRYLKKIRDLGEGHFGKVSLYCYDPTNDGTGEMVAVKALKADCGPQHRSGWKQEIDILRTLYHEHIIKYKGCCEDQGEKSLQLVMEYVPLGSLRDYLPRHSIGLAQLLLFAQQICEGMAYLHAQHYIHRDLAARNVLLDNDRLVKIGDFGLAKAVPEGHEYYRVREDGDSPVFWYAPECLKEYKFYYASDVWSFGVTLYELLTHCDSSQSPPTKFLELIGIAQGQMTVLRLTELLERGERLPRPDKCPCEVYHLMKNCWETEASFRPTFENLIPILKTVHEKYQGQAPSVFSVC
- Measurement Description: TYK2 MSD degradation in OCI-LY10 cells
- Type: cell-based
- Settings: TYK2 degradation in OCI-LY10 cells, 4 to 24 hours incubation
Measured Property: TYK2 MSD OCI-LY10 Dmax %

>  <Compound>
COC1(c2cc(C)cc(-c3cn(C4CCN(CC5CCN(C(=O)c6ccc(Cl)c(N7CCC(=O)NC7=O)c6)CC5)CC4)c4cnc(NC(C)=O)cc34)n2)CCOC1 (stereo not shown)

>  <Tested System>
TYK2 (Homo sapiens)

>  <Recorded Result>
D (D (<50%))

$$$$
>  <Compound>
CNc1cc(N2CCc3c(-c4ccc(CN5CCC6(CC5)CCN(c5ccc(Cl)c(NC7CCC(=O)NC7=O)c5)CC6)cn4)cccc32)nn2c(C(=O)NC3CC3)cnc12 (stereo not shown)

>  <Tested System>
TYK2 (Homo sapiens)

>  <Recorded Result>
D (D (<50%))

$$$$
>  <Compound>
CNc1cc(N2CCc3c(-c4ncc(C(=O)N5CC6(CCN(C(=O)c7cc(C)c(Cl)c(N8CCC(=O)NC8=O)c7)CC6)C5)cc4F)cccc32)nn2c(C(=O)N[C@@H]3CC[C@H]3OC)cnc12

>  <Tested System>
TYK2 (Homo sapiens)

>  <Recorded Result>
A (A (>90%))

$$$$
>  <Compound>
CNc1cc(N2CCc3c(-c4ccc(CN5CC6(CCN(C(=O)c7cc(C)c(C)c(N8CCC(=O)NC8=O)c7)CC6(F)F)C5)cn4)cccc32)nn2c(C(=O)N[C@@H]3C[C@@H]3F)cnc12

>  <Tested System>
TYK2 (Homo sapiens)

>  <Recorded Result>
A (A (>90%))

$$$$
>  <Compound>
CNc1cc(N2CCc3c(CN4CCC(N5CCC6(CCN(C(=O)c7cc(N8CCC(=O)NC8=O)c(C)cc7F)CC6)CC5)C(F)(F)C4)cccc32)nn2c(C(=O)N[C@@H]3C[C@@H]3F)cnc12 (stereo partly shown)

>  <Tested System>
TYK2 (Homo sapiens)

>  <Recorded Result>
A (A (>90%))

$$$$
>  <Compound>
CNc1cc(N2CCc3c(N4CCN(C5CCC6(CC5)CCN(C(=O)c5ccc(Cl)c(N7CCC(=O)NC7=O)c5)CC6)CC4)cccc32)nn2c(C(=O)N[C@@H]3C[C@@H]3F)cnc12

>  <Tested System>
TYK2 (Homo sapiens)

>  <Recorded Result>
D (D (<50%))

$$$$
>  <Compound>
CNc1cc(N2CCc3c(CN4CCC(N5CC(N6CCN(c7cccn8c(N9CCC(=O)NC9=O)cnc78)CC6)C5)C(F)(F)C4)cccc32)nn2c(C(=O)N[C@@H]3C[C@@H]3F)cnc12 (stereo partly shown)

>  <Tested System>
TYK2 (Homo sapiens)

>  <Recorded Result>
A (A (>90%))

$$$$
>  <Compound>
CNc1cc(N2CCc3c(CN4CCC(CN5CCC6(CCN(C(=O)c7cc(C)c(Cl)c(N8CCC(=O)NC8=O)c7)CC6)C(F)(F)C5)C(F)(F)C4)cccc32)nn2c(C(=O)N[C@@H]3CC[C@H]3OC)cnc12 (stereo partly shown)

>  <Tested System>
TYK2 (Homo sapiens)

>  <Recorded Result>
A (A (>90%))

$$$$
